Answer each item with its documented pKi.
API: returns pKi as number; meaning -log10 of concentration in mol/L.

Measured on Carbonic anhydrase 1 (Homo sapiens, UniProt P00915), COc1ccc(C(NS(C)(=O)=O)c2cccc(OC)c2OC)cc1OC (stereo not drawn) has a documented pKi of 5.43

Measured on Carbonic anhydrase 1 (Homo sapiens, UniProt P00915), COc1ccc(C(N)c2cc(OC)c(OC)cc2C)cc1OC (stereo not drawn) has a documented pKi of 4.40

Measured on Carbonic anhydrase 1 (Homo sapiens, UniProt P00915), COc1ccc(C(NS(C)(=O)=O)c2cc(OC)c(OC)cc2C)cc1OC (stereo not drawn) has a documented pKi of 4.31

---

Readout Name: pKi
API: returns pKi as number; meaning -log10 of concentration in mol/L.

Measured on Carbonic anhydrase 2 (Homo sapiens), COc1ccc(C(N)c2ccc(OC)c(OC)c2)c(OC)c1 (stereo unspecified) has a documented pKi of 4.46

Measured on Carbonic anhydrase 2 (Homo sapiens), COc1ccc(C(NS(C)(=O)=O)c2cc(OC)c(OC)cc2C)cc1OC (stereo unspecified) has a documented pKi of 4.72

Measured on Carbonic anhydrase 2 (Homo sapiens), `COc1ccc(C(N)c2ccc(OC)c(OC)c2)cc1OC` has a documented pKi of 4.81

Measured on Carbonic anhydrase 2 (Homo sapiens), `COc1ccc(C(NS(C)(=O)=O)c2ccc(OC)c(OC)c2)cc1OC` has a documented pKi of 4.74

Measured on Carbonic anhydrase 2 (Homo sapiens), COc1ccc(C(NS(C)(=O)=O)c2cccc(OC)c2OC)cc1OC (stereo unspecified) has a documented pKi of 5.03

Measured on Carbonic anhydrase 2 (Homo sapiens), COc1ccc(C(N)c2cc(OC)c(OC)cc2C)cc1OC (stereo unspecified) has a documented pKi of 4.32

# credit: BindingDB's records for doi:10.3109/14756366.2012.763163
